- system.under.test: T1, subunit E (Vma4p), N-terminal MBP fusion (S. cerevisiae, UniProt P22203 1-233)
- T1 construct: V-ATPase subunit E (Vma4p), S. cerevisiae, 233 amino acids; also called MBP-E; source: E. coli, purified (amylose column); not shown: MBP, N-terminal, kept
- T1 sequence (looked up): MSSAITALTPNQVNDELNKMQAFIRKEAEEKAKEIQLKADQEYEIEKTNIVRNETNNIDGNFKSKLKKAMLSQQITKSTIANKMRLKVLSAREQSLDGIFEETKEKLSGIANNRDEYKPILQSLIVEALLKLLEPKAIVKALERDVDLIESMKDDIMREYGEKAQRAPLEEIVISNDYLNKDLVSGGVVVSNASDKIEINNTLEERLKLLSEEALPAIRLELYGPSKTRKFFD
- protocol.description: peptide or protein array; 20-mer peptides linked at their C-terminal end to cellulose and spotted in duplicate on glass slides; blocked in 2% nonfat milk; purified probe at 4 µM in TBS for 1 hour at 4°C; bound probe detected through MBP or FLAG with HRP-coupled antibody (chemiluminescence); hits by ANOVA (p 0.05, Bonferroni) and HCL in MeV, score of at least 1 in 75% of the spots
- assay.conditions: both partners purified
Ends that are not written are not given here. cellulose = not defined here

| binder | binding result |
| --- | --- |
| RNKLYKAYLEDFYNFVTEEI-cellulose (peptide, UniProt P32366 181-200, looked up, reading uncertain, source: synthetic peptide, spotted on glass slide array (Intavis)) [d(181-200)] | binds |
| DFEGVRAALANVYEYRGFLE-cellulose (peptide, UniProt P32366 261-280, looked up, reading uncertain, source: synthetic peptide, spotted on glass slide array (Intavis)) [d(261-280)] | binds |
| TENTIAYINSELDELDREEF-cellulose (peptide, UniProt P32610 181-200, looked up, reading uncertain, source: synthetic peptide, spotted on glass slide array (Intavis)) [D(181-200)] | binds |
